Data credit: patent US20200390767A1

assay: PRK clinical study, plasma pharmacokinetics of compound I (LC-MS/MS); type: in vivo, human; details: human, plasma, topical or ocular, 2.5 %, median; profile day 4; plasma; topical ocular 2.5% compound I; read-out: Cmax
READOUT_LABEL: Cmax (ng/mL)
State just the number; it will be interpreted in ng/mL.

stdin: Report Cmax, nothing else, for this molecule: CC(C)c1nc2cc(O)ccc2c(=O)n1-c1ccc(C#N)cc1 [Compound I]
stdout: 2.07

---

assay: Solubility of compound I in solvents; format: physicochemical; details: organic solvent or mixture; solvent: Ethanol
READOUT_LABEL: solubility (µg/mL)
State just the number; it will be interpreted in µg/mL.

stdin: Report solubility, nothing else, for this compound: CC(C)c1nc2cc(O)ccc2c(=O)n1-c1ccc(C#N)cc1 [Compound I]
stdout: 790

---

Assay: PRK clinical study, plasma pharmacokinetics of compound I (LC-MS/MS)
Assay type: in vivo, human
Conditions: human, plasma, topical or ocular, 2.5 %, max; profile day 4; plasma; topical ocular 2.5% compound I; read-out: AUClast
Protocol: Pharmacokinetic (PK) samples were collected at the time points defined in the visit schedule supra, with PK blood collection windows shown in Table 27. […] Compound I was quantified in plasma using a validated LC-MS/MS method; the lower limit of quantification (LLOQ) was 0.05 ng/mL. […] When feasible, bandage contact lenses (BCL) exposed to study drug were collected and analyzed for residual drug exposure after treatment (LLOQ: 5.00 ng/mL in 0.55 mL of extraction fluid, or 2.75 ng/BCL). […]
READOUT_LABEL: AUC(0-t) (ng·h/mL)
State just the number; it will be interpreted in ng·h/mL.

stdin: Report AUC(0-t), nothing else, for this compound: CC(C)c1nc2cc(O)ccc2c(=O)n1-c1ccc(C#N)cc1
stdout: 14.5

---

assay: PRK clinical study, plasma pharmacokinetics of compound I (LC-MS/MS); format: in vivo, human; conditions: human, plasma, topical or ocular, 2.5 %, max; profile day 4; plasma; topical ocular 2.5% compound I; read-out: Cmax
READOUT_LABEL: Cmax

stdin: Report Cmax, nothing else, for this molecule: CC(C)c1nc2cc(O)ccc2c(=O)n1-c1ccc(C#N)cc1
stdout: 7.56 ng/mL

---

assay: Solubility of compound I in solvents; format: physicochemical; conditions: organic solvent or mixture; solvent: Hexylene Glycol
READOUT_LABEL: solubility

stdin: Report solubility, nothing else, for this molecule: CC(C)c1nc2cc(O)ccc2c(=O)n1-c1ccc(C#N)cc1 [Compound I]
stdout: 280 µg/mL

---

assay: PRK clinical study, plasma pharmacokinetics of compound I (LC-MS/MS); type: in vivo, human; conditions: human, plasma, topical or ocular, 2.5 %, min; profile day 4; plasma; topical ocular 2.5% compound I; read-out: AUClast
READOUT_LABEL: AUC(0-t) (ng·h/mL)
State just the number; it will be interpreted in ng·h/mL.

stdin: Report AUC(0-t), nothing else, for this compound: CC(C)c1nc2cc(O)ccc2c(=O)n1-c1ccc(C#N)cc1
stdout: 1.18

---

experiment: PRK clinical study, plasma pharmacokinetics of compound I (LC-MS/MS); assay type: in vivo, human; conditions: human, plasma, topical, 2.5 %, first dose on Day 1; read-out: Arithmetic mean plasma Cmax
READOUT_LABEL: Cmax (ng/mL)
State just the number; it will be interpreted in ng/mL.

stdin: Report Cmax, nothing else, for this molecule: CC(C)c1nc2cc(O)ccc2c(=O)n1-c1ccc(C#N)cc1
stdout: 0.454

---

assay: Solubility of compound I in solvents; format: physicochemical; conditions: organic solvent or mixture; solvent: Isopropanol
READOUT_LABEL: solubility (µg/mL)
State just the number; it will be interpreted in µg/mL.

stdin: Report solubility, nothing else, for this compound: CC(C)c1nc2cc(O)ccc2c(=O)n1-c1ccc(C#N)cc1
stdout: 330

---

experiment: Solubility of compound I in solvents; assay type: physicochemical; settings: organic solvent or mixture; solvent: Propylene Carbonate
READOUT_LABEL: solubility
Write the figure, then the unit, nothing else.

stdin: Report solubility, nothing else, for this molecule: CC(C)c1nc2cc(O)ccc2c(=O)n1-c1ccc(C#N)cc1 [Compound I]
stdout: 400 µg/mL

---

experiment: PRK clinical study, plasma pharmacokinetics of compound I (LC-MS/MS); assay type: in vivo, human; details: human, plasma, topical or ocular, 2.5 %, mean; profile day 4 (13th dose, QID); plasma; topical ocular 2.5% compound I; read-out: Cmax
READOUT_LABEL: Cmax (ng/mL)
State just the number; it will be interpreted in ng/mL.

stdin: Report Cmax, nothing else, for this compound: CC(C)c1nc2cc(O)ccc2c(=O)n1-c1ccc(C#N)cc1
stdout: 2.4

---

experiment: PRK clinical study, plasma pharmacokinetics of compound I (LC-MS/MS); type: in vivo, human; conditions: human, plasma, topical or ocular, 2.5 %, max; profile day 1; plasma; topical ocular 2.5% compound I; read-out: Cmax
READOUT_LABEL: Cmax (ng/mL)
State just the number; it will be interpreted in ng/mL.

stdin: Report Cmax, nothing else, for this compound: CC(C)c1nc2cc(O)ccc2c(=O)n1-c1ccc(C#N)cc1 [Compound I]
stdout: 1.05

---

test: PRK clinical study, plasma pharmacokinetics of compound I (LC-MS/MS); type: in vivo, human; conditions: human, plasma, topical or ocular, 2.5 %, mean; profile day 4; plasma; topical ocular 2.5% compound I; read-out: AUClast
READOUT_LABEL: AUC(0-t)
Write the figure, then the unit, nothing else.

stdin: Report AUC(0-t), nothing else, for this molecule: CC(C)c1nc2cc(O)ccc2c(=O)n1-c1ccc(C#N)cc1 [Compound I]
stdout: 4.38 ng·h/mL

---

experiment: Solubility of compound I in solvents; assay type: physicochemical; details: organic solvent or mixture; solvent: Polyethylene Glycol 200
READOUT_LABEL: solubility (µg/mL)
State just the number; it will be interpreted in µg/mL.

stdin: Report solubility, nothing else, for this compound: CC(C)c1nc2cc(O)ccc2c(=O)n1-c1ccc(C#N)cc1
stdout: 1620

---

assay: PRK clinical study, plasma pharmacokinetics of compound I (LC-MS/MS); assay type: in vivo, human; settings: human, plasma, topical or ocular, 2.5 %, max; profile day 1; plasma; topical ocular 2.5% compound I; read-out: AUClast
READOUT_LABEL: AUC(0-t) (ng·h/mL)
State just the number; it will be interpreted in ng·h/mL.

stdin: Report AUC(0-t), nothing else, for this compound: CC(C)c1nc2cc(O)ccc2c(=O)n1-c1ccc(C#N)cc1
stdout: 1.58

---

assay: Solubility of compound I in solvents; type: physicochemical; details: organic solvent or mixture; solvent: Diisopropyl Adipate
READOUT_LABEL: solubility (µg/mL)
State just the number; it will be interpreted in µg/mL.

stdin: Report solubility, nothing else, for this compound: CC(C)c1nc2cc(O)ccc2c(=O)n1-c1ccc(C#N)cc1
stdout: 160

---

assay: Solubility of compound I in solvents; assay type: physicochemical; details: organic solvent or mixture; solvent: Propylene Glycol
READOUT_LABEL: solubility (mg/mL)
State just the number; it will be interpreted in mg/mL.

stdin: Report solubility, nothing else, for this compound: CC(C)c1nc2cc(O)ccc2c(=O)n1-c1ccc(C#N)cc1
stdout: 1.68

---

assay: PRK clinical study, plasma pharmacokinetics of compound I (LC-MS/MS); type: in vivo, human; details: human, plasma, topical or ocular, 2.5 %, mean; profile day 1; plasma; topical ocular 2.5% compound I; read-out: AUClast
READOUT_LABEL: AUC(0-t)
Write the figure, then the unit, nothing else.

stdin: Report AUC(0-t), nothing else, for this compound: CC(C)c1nc2cc(O)ccc2c(=O)n1-c1ccc(C#N)cc1 [Compound I]
stdout: 0.638 ng·h/mL

---

test: PRK clinical study, plasma pharmacokinetics of compound I (LC-MS/MS); type: in vivo, human; details: human, plasma, topical, 2.5 %, 13th dose on Day 4; read-out: mean plasma AUClast
READOUT_LABEL: AUC(0-t)

stdin: Report AUC(0-t), nothing else, for this molecule: CC(C)c1nc2cc(O)ccc2c(=O)n1-c1ccc(C#N)cc1 [Compound I]
stdout: 4.38 ng·h/mL

---

experiment: PRK clinical study, plasma pharmacokinetics of compound I (LC-MS/MS); type: in vivo, human; conditions: human, plasma, topical or ocular, 2.5 %, median; profile day 4; plasma; topical ocular 2.5% compound I; read-out: AUClast
READOUT_LABEL: AUC(0-t) (ng·h/mL)
State just the number; it will be interpreted in ng·h/mL.

stdin: Report AUC(0-t), nothing else, for this compound: CC(C)c1nc2cc(O)ccc2c(=O)n1-c1ccc(C#N)cc1
stdout: 3.42

---

assay: PRK clinical study, plasma pharmacokinetics of compound I (LC-MS/MS); type: in vivo, human; details: human, plasma, topical or ocular, 2.5 %, min; profile day 4; plasma; topical ocular 2.5% compound I; read-out: Cmax
READOUT_LABEL: Cmax

stdin: Report Cmax, nothing else, for this compound: CC(C)c1nc2cc(O)ccc2c(=O)n1-c1ccc(C#N)cc1 [Compound I]
stdout: 0.639 ng/mL
